- tgt: P-gp (Homo sapiens)
- test.description: Calcein-AM efflux assay in MDCKII MDR1 cells
- Type: cell-based
- Parameters: host or cells: MDCKII MDR1 cells
- protocol.conditions: MDCKII MDR1 cells, extracellular pH 7.4, 5.0 µM calcein-AM; read-out: Calcein-AM, pH 7.4 IC50
measured.quantity: IC50 (µM)
Value expressed in µM; do not type the unit.

Q: Which IC50 value is on record for Cn1cnnc1CC(NS(=O)(=O)N1CCC(C(C)(C)C)CC1)C(=O)O (stereo not shown) ?
A: 299

----------
- tgt: P-gp (Homo sapiens, UniProt P08183)
- Sequence (P08183 whole entry): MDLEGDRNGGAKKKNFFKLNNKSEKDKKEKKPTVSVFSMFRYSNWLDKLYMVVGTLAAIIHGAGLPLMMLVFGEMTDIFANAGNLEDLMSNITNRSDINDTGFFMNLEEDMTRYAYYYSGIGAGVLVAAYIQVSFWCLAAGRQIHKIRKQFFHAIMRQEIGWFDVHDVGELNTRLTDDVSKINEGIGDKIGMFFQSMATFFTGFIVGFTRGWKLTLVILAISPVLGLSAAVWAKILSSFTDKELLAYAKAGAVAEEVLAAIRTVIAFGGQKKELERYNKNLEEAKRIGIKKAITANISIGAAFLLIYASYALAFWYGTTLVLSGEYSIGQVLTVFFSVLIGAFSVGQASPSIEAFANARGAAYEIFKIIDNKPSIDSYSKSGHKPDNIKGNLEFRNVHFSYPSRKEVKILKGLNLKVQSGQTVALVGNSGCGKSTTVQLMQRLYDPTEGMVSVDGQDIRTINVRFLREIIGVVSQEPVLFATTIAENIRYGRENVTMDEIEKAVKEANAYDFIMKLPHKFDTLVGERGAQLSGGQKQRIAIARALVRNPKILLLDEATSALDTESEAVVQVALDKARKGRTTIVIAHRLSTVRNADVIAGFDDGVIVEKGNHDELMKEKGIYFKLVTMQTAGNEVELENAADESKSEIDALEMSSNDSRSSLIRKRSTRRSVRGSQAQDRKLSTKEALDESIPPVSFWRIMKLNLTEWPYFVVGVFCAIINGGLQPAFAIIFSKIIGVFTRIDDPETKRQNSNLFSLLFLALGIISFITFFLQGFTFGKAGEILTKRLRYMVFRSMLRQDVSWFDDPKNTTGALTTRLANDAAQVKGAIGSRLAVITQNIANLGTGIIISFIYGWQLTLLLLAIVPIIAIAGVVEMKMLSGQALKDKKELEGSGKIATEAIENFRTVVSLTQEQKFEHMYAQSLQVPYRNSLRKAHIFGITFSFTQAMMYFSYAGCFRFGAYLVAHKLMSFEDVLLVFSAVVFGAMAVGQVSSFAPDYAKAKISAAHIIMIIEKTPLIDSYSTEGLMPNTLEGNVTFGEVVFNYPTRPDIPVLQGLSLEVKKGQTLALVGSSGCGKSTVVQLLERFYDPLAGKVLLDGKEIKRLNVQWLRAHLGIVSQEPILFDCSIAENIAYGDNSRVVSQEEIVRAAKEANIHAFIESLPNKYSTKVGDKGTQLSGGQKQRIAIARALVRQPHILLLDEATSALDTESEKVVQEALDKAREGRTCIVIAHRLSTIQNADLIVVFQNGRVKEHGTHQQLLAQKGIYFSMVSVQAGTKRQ
- test.description: Calcein-AM efflux assay in MDCKII MDR1 cells
- Assay type: cell-based
- Set-up: host or cells: MDCKII MDR1 cells
- protocol.conditions: MDCKII MDR1 cells, extracellular pH 5.5, 5.0 µM calcein-AM; read-out: Calcein-AM, pH 5.5 IC50
measured.quantity: IC50
Please answer using a numeric value trailed by its unit.

Q: Dear colleague, I am looking for the recorded IC50 of the following compound: Cn1cnnc1CC(NS(=O)(=O)N1CCC(C(C)(C)C)CC1)C(=O)O (stereo not shown)
A: 127 µM
